Subject Of Test: PD-1-Ig binding to PD-L1-TVMV-His (PD-L1-His) (Homo sapiens, UniProt Q9NZQ7)
Construct: hPDL1(19-239)-TVMV-His; TVMV protease cleavage site (C); made in house; host or cells: HEK293T cells
Sequence (Q9NZQ7 with tags, fused parts or gaps): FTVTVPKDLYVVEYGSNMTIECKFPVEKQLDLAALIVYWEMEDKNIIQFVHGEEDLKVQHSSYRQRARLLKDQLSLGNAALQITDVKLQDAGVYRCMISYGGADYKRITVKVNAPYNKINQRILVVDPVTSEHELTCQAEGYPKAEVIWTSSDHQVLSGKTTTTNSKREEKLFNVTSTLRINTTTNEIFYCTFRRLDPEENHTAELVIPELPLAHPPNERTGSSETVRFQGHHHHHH
Assay Details: PD-1/PD-L1 Homogenous Time-Resolved Fluorescence (HTRF) binding assay
Experimental Setup: PD-1-Ig/PD-L1-His binding; values given as range classes
Excerpt: The ability of the macrocyclic peptides of the present disclosure to bind to PD-L1 was investigated using a PD-1/PD-L1 Homogenous Time-Resolved Fluorescence (HTRF) binding assay. Homogenous Time-Resolved Fluorescence (HTRF) Assays of Binding of Soluble PD-1 to Soluble PD-L1. […]
Starred links: 1 amine or outer side, 2 acyl side, 3 side chain; linkers in the order of their positions; H or OH if unused. Positions of bridges follow the written chain, without caps; N, C: chain ends. Non-standard residues stand in square brackets, D forms with d. Residues, ends and D or L forms follow the SMILES beside them. X5 = NC(=O)CNC(=O)[C@H](CSCC(=O)[*:1])CC(=O)C1(N[*:2])CC1; Hyp = O=C(O)[C@@H]1C[C@@H](O)CN1; NMeNle = CCCC[C@H](NC)C(=O)O; hLeu = CC(C)CC[C@H](N)C(=O)O; NMeA = CN[C@@H](C)C(=O)O; Dab = NCC[C@H](N)C(=O)O; Dap = NC[C@H](N)C(=O)O; Ac3c = NC1(C(=O)O)CC1
Readout Type: IC50

Entry under review: CCCC[C@H]1C(=O)N(C)[C@@H](CCCC)C(=O)NC2(CC2)C(=O)C[C@H](C(=O)NCC(N)=O)CSCC(=O)N[C@@H](Cc2ccccc2)C(=O)N(C)[C@@H](C)C(=O)N[C@@H](CC(N)=O)C(=O)N2CCC[C@H]2C(=O)N[C@@H](Cc2c[nH]cn2)C(=O)N[C@@H](CCC(C)C)C(=O)NCC(=O)N[C@@H](Cc2c[nH]c3ccccc23)C(=O)N[C@@H](CO)C(=O)N[C@@H](Cc2c[nH]c3ccccc23)C(=O)N1C [Example 5001] (F[NMeA]NPH[hLeu]GWSW[NMeNle][NMeNle]; linker N-C via X5) . Reported IC50?
0.1 to 10 µM

Entry under review: CCCC[C@H]1C(=O)N(C)[C@@H](CCCC)C(=O)N[C@@H](CC(C)C)C(=O)N[C@H](C(=O)NCC(N)=O)CSCC(=O)N[C@@H](Cc2ccc(O)cc2)C(=O)N(C)[C@@H](C)C(=O)NC2(CC2)C(=O)N2CCC[C@H]2C(=O)N[C@@H](CN)C(=O)N[C@@H](CC(C)C)C(=O)N2C[C@H](O)C[C@H]2C(=O)N[C@@H](Cc2c[nH]c3ccccc23)C(=O)N[C@@H](CCN)C(=O)N[C@@H](Cc2c[nH]c3ccccc23)C(=O)N1C [Example 9014] ({CH2CO}-Y[NMeA][Ac3c]P[Dap]L[Hyp]W[Dab]W[NMeNle][NMeNle]LCG-NH2; thioether N-14) . Reported IC50?
0.1 to 10 µM
